assay: Solubility determination of MK2 inhibitors (kinetic aqueous solubility, UPLC); assay type: physicochemical; conditions: aqueous buffer (system solution from pION inc.), 22 °C, pH 7.4, aqueous buffer, kinetic from dmso stock, Table 1, compound of Formula (I) with spiro ring; pH 7.4; read-out: Solubility pH 7.4 (mg/L), Formula (I)
observationType: solubility at 24 h (mg/L)

Study these solved cases before continuing.
1. O=C1NCC2(CCNCC2)c2[nH]c(-c3ccnc(-c4ccccc4F)n3)cc21 :: 36
2. CC(=O)c1ccc(-c2nccc(-c3cc4c([nH]3)C3(CCNCC3)CNC4=O)n2)cc1 :: 35

P: O=C1NCC2(CCNCC2)c2[nH]c(-c3ccnc(-c4cnc5ccccc5c4)n3)cc21
Q: O=C1NCC2(CCNCC2)c2[nH]c(-c3ccnc(-c4cnc5ccccc5c4)c3)cc21
[ask] Consider P and Q . Which of these has its solubility at 24 h at a higher number? Please indicate the selected item by its label.
[reply] Q
(Q: 35 mg/L, P: 23 mg/L)

###

Target: MK2 enzyme (Homo sapiens, UniProt P49137)
Construct: MK2 enzyme (active enzyme (peptide 46-end (Millipore))); purchased Millipore
Sequence (P49137 46-400 limits assumed): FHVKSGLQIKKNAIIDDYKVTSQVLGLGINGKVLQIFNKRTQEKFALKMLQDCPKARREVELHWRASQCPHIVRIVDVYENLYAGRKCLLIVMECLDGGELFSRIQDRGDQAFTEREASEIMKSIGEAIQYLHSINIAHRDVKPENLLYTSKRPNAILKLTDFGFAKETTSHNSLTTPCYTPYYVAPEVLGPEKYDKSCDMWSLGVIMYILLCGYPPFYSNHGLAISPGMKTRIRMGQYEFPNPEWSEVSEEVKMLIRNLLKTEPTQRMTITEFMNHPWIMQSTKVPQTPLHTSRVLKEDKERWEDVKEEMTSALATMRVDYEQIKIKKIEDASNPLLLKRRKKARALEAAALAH
Test: MK2 enzyme activity, IMAP fluorescence polarization assay
Format: biochemical
Procedure: In another assay the MK2 kinase activity can be determined by using an IMAP assay (Immobilized Metal Assay for Phosphochemicals—based coupled assay). IMAP is a homogeneous fluorescence polarization (FP) assay based on affinity capture of phosphorylated peptide substrates. […] MK2 enzyme activity is measured using the IMAP (immobilized metal ion affinity-based fluorescence polarization) assay as outlined below. […] After 60 min incubation at room temperature in the dark the FP signal is read. […]
observationType: EC50 (nM)

1. O=C1NCCc2[nH]c(-c3ccnc(-c4cc5ccccc5o4)c3)cc21 :: 126

A: O=C1NCCc2[nH]c(-c3ccnc(-c4cnc5ccccc5c4)n3)cc21
B: O=C1NCCc2[nH]c(-c3ccnc(-c4cccc(F)c4)n3)cc21
[ask] Consider A and B . Which of these has its EC50 at a higher number? Please indicate the selected item by its label.
[reply] B
(B: 501 nM, A: 10 nM)

###

target: MK2 enzyme (Homo sapiens); construct: MK2 enzyme (active enzyme (peptide 46-end (Millipore))); purchased Millipore; experiment: MK2 enzyme activity, IMAP fluorescence polarization assay; type: biochemical; conditions: MK2 IMAP assay, 1 μM ATP, 30 min pre-incubation, 2 h room temperature; read-out: pEC50 value (converted)
Reported EC50 by item:

Study these solved cases before continuing.
1. CC(=O)c1ccc(-c2nccc(-c3cc4c([nH]3)C3(CCNCC3)CNC4=O)n2)cc1 [1—6] :: 3.16 to 31.6 nM
2. O=C1NCC2(CCNCC2)c2[nH]c(-c3ccnc(-c4cc5ccccc5s4)n3)cc21 [1—28] :: 3.16 to 31.6 nM
3. O=C1NCC2(CCNC2)c2[nH]c(-c3ccnc(-c4cc5ccccc5o4)c3)cc21 (stereo not shown) [6—5] :: 3.16 to 31.6 nM
4. O=C1NCC2(CCNCC2)c2[nH]c(-c3ccnc(-c4ccc5c(c4)OCCCO5)n3)cc21 [1—11] :: 3.16 to 31.6 nM

[ask] Recorded EC50 for O=C1NCC2(CCCNC2)c2[nH]c(-c3ccnc(-c4cc5ccccc5o4)n3)cc21 (stereo not shown) [Example 5—1] , please?
[reply] 3.16 to 31.6 nM

[ask] Moving on to the next compound: O=C1NCC2(CCNCC2)c2[nH]c(-c3ccnc(-c4cc(C(F)(F)F)cc(C(F)(F)F)c4)n3)cc21 [1—34]
[reply] 31.6 to 316 nM

[ask] Moving on to the next compound: NCCN1CCC2(CC1)CNC(=O)c1cc(-c3ccnc(-c4cc5ccccc5o4)n3)[nH]c12 [Example 2—3]
[reply] 31.6 to 316 nM

[ask] Moving on to the next compound: O=C1NCC2(CCNCC2)c2[nH]c(-c3ccnc(-c4cc(Cl)cc(Cl)c4)n3)cc21 [1—25]
[reply] 3.16 to 31.6 nM

[ask] Moving on to the next compound: COc1cc(-c2nccc(-c3cc4c([nH]3)C3(CCNCC3)CNC4=O)n2)ccc1O [1—20]
[reply] 31.6 to 316 nM

[ask] Moving on to the next compound: O=C(Nc1cc(-c2cc3c([nH]2)C2(CCNCC2)CNC3=O)ccn1)c1ccc(C(F)(F)F)cc1 [Example 12—1]
[reply] ≤ 3.16 nM

[ask] Moving on to the next compound: Cc1cc(-c2nccc(-c3cc4c([nH]3)C3(CCNCC3)CNC4=O)n2)cc(C(C)(C)C)c1 [1—19]
[reply] 31.6 to 316 nM

[ask] Moving on to the next compound: O=C1NCC2(CCNCC2)c2[nH]c(-c3ccnc(-c4ccc5c(c4)OCO5)n3)cc21 [1—7]
[reply] 3.16 to 31.6 nM

###

target: MK2 enzyme (Homo sapiens, UniProt P49137); construct: MK2 enzyme (active enzyme (peptide 46-end (Millipore))); purchased Millipore; assay: MK2 enzyme activity, IMAP fluorescence polarization assay; type: biochemical; settings: Table 1, compound of Formula (I) with spiro ring; MK2 IMAP assay; read-out: pEC50, Formula (I) (converted)
observationType: EC50 (nM)

1. CC(=O)c1ccc(-c2nccc(-c3cc4c([nH]3)C3(CCNCC3)CNC4=O)n2)cc1 :: 6.31

a: O=C1NCC2(CCNCC2)c2[nH]c(-c3ccnc(-c4ccccc4F)n3)cc21
b: O=C1NCC2(CCNCC2)c2[nH]c(-c3ccnc(-c4cc5ccccc5o4)c3)cc21
c: O=C1NCC2(CCNCC2)c2[nH]c(-c3ccnc(-c4cnc5ccccc5c4)c3)cc21
d: O=C1NCC2(CCNCC2)c2[nH]c(-c3ccnc(-c4cc5ccccc5o4)n3)cc21
[ask] Please rank these compounds by EC50 in descending order. I'd appreciate it if you listed the labels in the requested order.
[reply] a, d, b, c

###

molecular target: MK2 enzyme (Homo sapiens, UniProt P49137); construct: MK2 enzyme (active enzyme (peptide 46-end (Millipore))); purchased Millipore; assay: MK2 enzyme activity, IMAP fluorescence polarization assay; assay type: biochemical; details: MK2 IMAP assay, 1 μM ATP, 30 min pre-incubation, 2 h room temperature; read-out: pEC50 value (converted)
observationType: EC50

1. O=C(NC1CCCCC1)c1ccc(-c2nccc(-c3cc4c([nH]3)C3(CCNCC3)CNC4=O)n2)cc1 [1—36] :: 3.16 to 31.6 nM

[ask] Recall the recorded EC50 for O=C1NCC2(CCNCC2)c2[nH]c(-c3ccnc(-c4nc5ccccc5s4)n3)cc21 [9—2] with MK2 enzyme (Homo sapiens, UniProt P49137) and state it.
[reply] 3.16 to 31.6 nM

[ask] Moving on to the next molecule: CC(C)(C)c1ccc(-c2nccc(-c3cc4c([nH]3)C3(CCNCC3)CNC4=O)n2)cc1 [1—22]
[reply] 3.16 to 31.6 nM

[ask] Moving on to the next molecule: Nc1ncc(-c2nccc(-c3cc4c([nH]3)C3(CCNCC3)CNC4=O)n2)cn1 [1—2]
[reply] ≤ 3.16 nM

###

assay: Solubility determination of MK2 inhibitors (kinetic aqueous solubility, UPLC); format: physicochemical; settings: aqueous buffer (system solution from pION inc.), 22 °C, pH 7.4, aqueous buffer, kinetic from dmso stock, Table 2, compound of Formula (I) with amine-containing spiro ring; pH 7.4; read-out: Solubility pH 7.4 (mg/L), Formula (I)
observationType: solubility at 24 h (mg/L)

Study these solved cases before continuing.
1. O=C1NCC2(CCNC2)c2[nH]c(-c3ccnc(-c4cccc(F)c4)n3)cc21 (stereo not shown) [17_4 Formula (I)] :: 48
2. O=C1NCC2(CCNC2)c2[nH]c(-c3ccnc(-c4cnc5ccccc5c4)n3)cc21 (stereo not shown) [17_3 Formula (I)] :: 37

I: O=C1NCC2(CCNCC2)c2[nH]c(-c3ccnc(-c4ccc5c(c4)OCO5)n3)cc21 [17_1 Formula (I)]
II: O=C1NCC2(CCNCC2)c2[nH]c(-c3ccnc(-c4cnc5ccccc5c4)n3)cc21 [17_2 Formula (I)]
[ask] Consider I and II . Which of these has its solubility at 24 h at a higher number? Please indicate the selected item by its label.
[reply] I

###

experiment: Solubility determination of MK2 inhibitors (kinetic aqueous solubility, UPLC); assay type: physicochemical; details: aqueous buffer (system solution from pION inc.), 22 °C, pH 7.4, aqueous buffer, kinetic from dmso stock, Table 1, comparison compound of Formula (XV) without spiro ring; pH 7.4; read-out: Solubility pH 7.4 (mg/L), Formula (XV)
observationType: solubility at 24 h (mg/L)

Study these solved cases before continuing.
1. O=C1NCCc2[nH]c(-c3ccnc(-c4cc5ccccc5o4)c3)cc21 :: 2
2. O=C1NCCc2[nH]c(-c3ccnc(-c4cnc5ccccc5c4)c3)cc21 :: 2

P: O=C1NCCc2[nH]c(-c3ccnc(-c4ccc5c(c4)OCO5)n3)cc21
Q: O=C1NCCc2[nH]c(-c3ccnc(-c4ccccc4F)n3)cc21
[ask] For the pair P and Q , which entry has the numerically smaller recorded solubility at 24 h? Please indicate the selected item by its label.
[reply] P

1: O=C1NCCc2[nH]c(-c3ccnc(-c4cc5ccccc5o4)n3)cc21
2: O=C1NCCc2[nH]c(-c3ccnc(-c4cccc(F)c4)n3)cc21
[ask] Consider 1 and 2 . Which of these has its solubility at 24 h at a higher number? Please indicate the selected item by its label.
[reply] 2
(2: 32 mg/L, 1: 2 mg/L)
